Recorded MIC, VRE 27 085 for the following compounds
Test system: vancomycin-resistant Enterococcus (VRE) clinical isolates
Protocol: Broth microdilution MIC, clinical VRE isolates
Type: cell-based, E. faecium
Condition Details: clinical isolate 27 085, wound, 2018

Compound: Cc1ccc(C(C)C)cc1.F[P-](F)(F)(F)(F)F.O=C(OCC1OC(n2cc(-c3ccc4ccccc4n3)nn2)C(OC(=O)c2ccccc2)C(OC(=O)c2ccccc2)C1OC(=O)c1ccccc1)c1ccccc1.[Cl][Ru+] (mixture of isomers) [Ru-7]
MIC, VRE 27 085 (µM): 5

Compound: CCCCC(=O)OCC1OC(n2cc(-c3ccccn3)nn2)C(OC(=O)CCCC)C(OC(=O)CCCC)C1OC(=O)CCCC.Cc1ccc(C(C)C)cc1.F[P-](F)(F)(F)(F)F.[Cl][Os+] (mixture of isomers) [Os-3]
MIC, VRE 27 085 (µM): 5

* * *

Recorded MIC against clinical VRE isolates (as a group) for the following molecules
Tested on: vancomycin-resistant Enterococcus (VRE) clinical isolates
Protocol: Broth microdilution MIC, clinical VRE isolates
Assay type: cell-based, E. faecium
Condition Details: 3 clinical VRE isolates
Protocol: The MIC values of the complexes were determined against the reference strains of S. aureus (ATCC29213) and E. faecalis. (ATCC29212) and against clinical VRE and MRSA isolates by microdilution assays (repeated at least twice in duplicates) as described in Materials and Methods. […] Microdilution experiments were performed according to the standards of EUCAST ([EUCAST, 2021]). […] The inoculated plates were incubated for 24 h at 37°C then were assessed visually. […]
Measurement Kind: MIC against clinical VRE isolates (as a group)

Molecule: CCCCCCC(=O)OCC1OC(n2cc(-c3ccccn3)nn2)C(OC(=O)CCCCCC)C(OC(=O)CCCCCC)C1OC(=O)CCCCCC.Cc1ccc(C(C)C)cc1.F[P-](F)(F)(F)(F)F.[Cl][Os+] (mixture of isomers)
Assayed Target: vancomycin-resistant Enterococcus (VRE) clinical isolates
Measured: > 40 µM
--
Molecule: CCCCCCCC(=O)OCC1OC(n2cc(-c3ccccn3)nn2)C(OC(=O)CCCCCCC)C(OC(=O)CCCCCCC)C1OC(=O)CCCCCCC.Cc1ccc(C(C)C)cc1.F[P-](F)(F)(F)(F)F.[Cl][Os+] (mixture of isomers)
Assayed Target: vancomycin-resistant Enterococcus (VRE) clinical isolates
Measured: > 40 µM

* * *

Recorded MIC, Reference S. aureus for the following molecules
Tested on: Staphylococcus aureus (ATCC29213)
Protocol: Broth microdilution MIC, Staphylococcus aureus reference strain
Assay type: cell-based
Condition Details: Staphylococcus aureus ATCC29213, 24 h

Molecule: CCCCCCC(=O)OCC1OC(n2cc(-c3ccccn3)nn2)C(OC(=O)CCCCCC)C(OC(=O)CCCCCC)C1OC(=O)CCCCCC.Cc1ccc(C(C)C)cc1.F[P-](F)(F)(F)(F)F.[Cl][Os+] (mixture of isomers)
MIC, Reference S. aureus: 40< µM

Molecule: CCCCCCCC(=O)OCC1OC(n2cc(-c3ccccn3)nn2)C(OC(=O)CCCCCCC)C(OC(=O)CCCCCCC)C1OC(=O)CCCCCCC.Cc1ccc(C(C)C)cc1.F[P-](F)(F)(F)(F)F.[Cl][Os+] (mixture of isomers)
MIC, Reference S. aureus: 40< µM

Molecule: CCCCCC(=O)OCC1OC(n2cc(-c3ccccn3)nn2)C(OC(=O)CCCCC)C(OC(=O)CCCCC)C1OC(=O)CCCCC.Cc1ccc(C(C)C)cc1.F[P-](F)(F)(F)(F)F.[Cl][Os+] (mixture of isomers)
MIC, Reference S. aureus: 40< µM
